# combination Emax per record follows
- System: CAL-148 (Breast Carcinoma)
- Procedure details: combination Emax (second highest fraction inhibited in the dose matrix, 72 h); higher = more inhibition; extreme values may be limits of the assay
Quantity measured: combination Emax

>>> number("NC1(C(=O)N[C@@H](CCO)c2ccc(Cl)cc2)CCN(c2ncnc3[nH]ccc23)CC1 [Capivasertib] + CC(C)n1c(=O)n(C)c2cnc3cc(F)c(-c4ccc(OCCCN5CCCCC5)nc4)cc3c21 [AZD1390] (first compound max 10 µM, 7x7, partner max 0.3 µM)")
0.971
>>> number("COc1cccc(OCCCN)c1-c1cc(Nc2cnc(C#N)cn2)n[nH]1 [Prexasertib] + C[C@@H]1COCCN1C2=NC(=NC(=C2)C3(CC3)[S@](=N)(=O)C)C4=C5C=CNC5=NC=C4 [AZD6738] (first compound max 1 µM, 7x7, partner max 10 µM)")
0.895
>>> number("CC(=O)c1c(C)c2cnc(Nc3ccc(N4CCNCC4)cn3)nc2n(C2CCCC2)c1=O [Palbociclib] + Cn1cnc2c(F)c(Nc3ccc(Br)cc3Cl)c(C(=O)NOCCO)cc21 [Selumetinib] (first compound max 10 µM, 7x7, partner max 10 µM)")
0.303
>>> number("N#Cc1cnc(Nc2cc(NC[C@H]3CNCCO3)c(C(F)(F)F)cn2)cn1 [SRA737] + Nc1ccn([C@@H]2O[C@H](CO)[C@@H](O)C2(F)F)c(=O)n1 [Gemcitabine] (first compound max 10 µM, 7x7, partner max 0.3 µM)")
0.845

====

# Bliss excess per record follows
- Test system: KYSE-520 (Esophageal Squamous Cell Carcinoma)
- Procedure details: Bliss excess, mean over the matrix (fraction); higher = more synergy
Quantity measured: Bliss excess

>>> number("COc1nnc2ccc(N3CCC(c4ccc(OCCN5CCN(C)C(=O)[C@H]5C)cc4)CC3)nn12 [AZD5153] + CN(CC[C@H](CSC1=CC=CC=C1)NC2=C(C=C(C=C2)S(=O)(=O)NC(=O)C3=CC=C(C=C3)N4CCC(CC4)[C@H](C5=CC=CC=C5C6=CC=C(C=C6)Cl)O)S(=O)(=O)C(F)(F)F)CCO [AZD4320] (first compound max 1 µM, 7x7, partner max 1 µM)")
0.023
>>> number("NC1(C(=O)N[C@@H](CCO)c2ccc(Cl)cc2)CCN(c2ncnc3[nH]ccc23)CC1 [Capivasertib] + CC(C)n1c(=O)n(C)c2cnc3cc(F)c(-c4ccc(OCCCN5CCCCC5)nc4)cc3c21 [AZD1390] (first compound max 10 µM, 7x7, partner max 0.3 µM)")
-0.0364
>>> number("Cc1cc2ncnn2cc1Nc1ncc2c(n1)n(C1CCOCC1)c(=O)n2C [AZD7648] + C=CCn1c(=O)c2cnc(Nc3ccc(N4CCN(C)CC4)cc3)nc2n1-c1cccc(C(C)(C)O)n1 [AZD1775] (first compound max 10 µM, partner max 1 µM)")
0.0058
>>> number("Cc1c2c(nn1C)CSCc1cc(n(C)n1)CSc1cc(c3ccccc3c1)OCCCc1c(C(=O)O)n(C)c3c-2c(Cl)ccc13 [AZD5991] + CC1(C)CCC(CN2CCN(c3ccc(C(=O)NS(=O)(=O)c4ccc(NCC5CCOCC5)c([N+](=O)[O-])c4)c(Oc4cnc5[nH]ccc5c4)c3)CC2)=C(c2ccc(Cl)cc2)C1 [Venetoclax] (first compound max 1 µM, 7x7, partner max 1 µM)")
-0.0306
>>> number("CN(CCO)CC[C@H](CSc1ccccc1)Nc1ccc(S(=O)(=O)NC(=O)c2ccc(N3CCC([C@@H](O)c4ccccc4-c4ccc(Cl)cc4)CC3)cc2)cc1S(=O)(=O)C(F)(F)F [AZD4320] + CN(C)CCCOc1ccc(-c2ccc3ncc4c(c3c2)n(C2CCOCC2)c(=O)n4C)cn1 [AZD0156] (first compound max 1 µM, 7x7, partner max 1 µM)")
-0.051
>>> number("Cc1c2c(nn1C)CSCc1cc(n(C)n1)CSc1cc(c3ccccc3c1)OCCCc1c(C(=O)O)n(C)c3c-2c(Cl)ccc13 [AZD5991] + C1CN(CCC1(C(=O)N[C@@H](CCO)C2=CC=C(C=C2)Cl)N)C3=NC=NC4=C3C=CN4 [Capivasertib] (first compound max 1 µM, 7x7, partner max 3 µM)")
-0.0068

====

- System: CAL-148 (Breast Carcinoma)
- Procedure details: Bliss excess, mean over the matrix (fraction); higher = more synergy
# Bliss excess per record follows
Quantity measured: Bliss excess

>>> number("COc1nnc2ccc(N3CCC(c4ccc(OCCN5CCN(C)C(=O)[C@H]5C)cc4)CC3)nn12 [AZD5153] + Cn1cnc2c(F)c(Nc3ccc(Br)cc3Cl)c(C(=O)NOCCO)cc21 [Selumetinib] (first compound max 1 µM, 7x7, partner max 10 µM)")
0.0129
>>> number("CN(CCO)CC[C@H](CSc1ccccc1)Nc1ccc(S(=O)(=O)NC(=O)c2ccc(N3CCC([C@@H](O)c4ccccc4-c4ccc(Cl)cc4)CC3)cc2)cc1S(=O)(=O)C(F)(F)F [AZD4320] + CS(=O)(=O)CCNCc1ccc(-c2ccc3ncnc(Nc4ccc(OCc5cccc(F)c5)c(Cl)c4)c3c2)o1 [Lapatinib] (first compound max 1 µM, 7x7, partner max 10 µM)")
-0.0411
>>> number("Cn1cnc2c(F)c(Nc3ccc(Br)cc3Cl)c(C(=O)NOCCO)cc21 [Selumetinib] + C=CCn1c(=O)c2cnc(Nc3ccc(N4CCN(C)CC4)cc3)nc2n1-c1cccc(C(C)(C)O)n1 [AZD1775] (first compound max 10 µM, partner max 1 µM)")
-0.0543
>>> number("CS(=O)(=O)CCNCc1ccc(-c2ccc3ncnc(Nc4ccc(OCc5cccc(F)c5)c(Cl)c4)c3c2)o1 [Lapatinib] + Cn1cnc2c(F)c(Nc3ccc(Br)cc3Cl)c(C(=O)NOCCO)cc21 [Selumetinib] (first compound max 10 µM, 7x7, partner max 10 µM)")
0.0085

====

- Test system: TE-9 (Esophageal Squamous Cell Carcinoma)
- Procedure details: combination Emax (second highest fraction inhibited in the dose matrix, 72 h); higher = more inhibition; extreme values may be limits of the assay
# combination Emax per record follows
Quantity measured: combination Emax

>>> number("Cc1c2c(nn1C)CSCc1cc(n(C)n1)CSc1cc(c3ccccc3c1)OCCCc1c(C(=O)O)n(C)c3c-2c(Cl)ccc13 [AZD5991] + C=CCn1c(=O)c2cnc(Nc3ccc(N4CCN(C)CC4)cc3)nc2n1-c1cccc(C(C)(C)O)n1 [AZD1775] (first compound max 1 µM, partner max 1 µM)")
0.366
>>> number("COc1cccc(OCCCN)c1-c1cc(Nc2cnc(C#N)cn2)n[nH]1 [Prexasertib] + C=CCn1c(=O)c2cnc(Nc3ccc(N4CCN(C)CC4)cc3)nc2n1-c1cccc(C(C)(C)O)n1 [AZD1775] (first compound max 1 µM, partner max 1 µM)")
0.86
>>> number("COc1nnc2ccc(N3CCC(c4ccc(OCCN5CCN(C)C(=O)[C@H]5C)cc4)CC3)nn12 [AZD5153] + CCN(CCO)CCCOc1ccc2c(Nc3cc(CC(=O)Nc4cccc(F)c4)[nH]n3)ncnc2c1 [AZD2811] (first compound max 1 µM, 7x7, partner max 1 µM)")
0.218
>>> number("CN(C)CCCOc1ccc(-c2ccc3ncc4c(c3c2)n(C2CCOCC2)c(=O)n4C)cn1 [AZD0156] + CCN(CCO)CCCOc1ccc2c(Nc3cc(CC(=O)Nc4cccc(F)c4)[nH]n3)ncnc2c1 [AZD2811] (first compound max 1 µM, 7x7, partner max 1 µM)")
0.0784
>>> number("COc1cccc2c1C(=O)c1c(O)c3c(c(O)c1C2=O)C[C@@](O)(C(=O)CO)C[C@@H]3O[C@H]1C[C@H](N)[C@H](O)[C@H](C)O1 [Doxorubicin] + Cc1cc2ncnn2cc1Nc1ncc2c(n1)n(C1CCOCC1)c(=O)n2C [AZD7648] (first compound max 1 µM, 7x7, partner max 10 µM)")
0.148
>>> number("NC1(C(=O)N[C@@H](CCO)c2ccc(Cl)cc2)CCN(c2ncnc3[nH]ccc23)CC1 [Capivasertib] + COc1nnc2ccc(N3CCC(c4ccc(OCCN5CCN(C)C(=O)[C@H]5C)cc4)CC3)nn12 [AZD5153] (first compound max 10 µM, 7x7, partner max 1 µM)")
0.354
>>> number("CCN(CCO)CCCOc1ccc2c(Nc3cc(CC(=O)Nc4cccc(F)c4)[nH]n3)ncnc2c1 [AZD2811] + C=CCn1c(=O)c2cnc(Nc3ccc(N4CCN(C)CC4)cc3)nc2n1-c1cccc(C(C)(C)O)n1 [AZD1775] (first compound max 1 µM, partner max 1 µM)")
0.207
>>> number("CN(CCO)CC[C@H](CSc1ccccc1)Nc1ccc(S(=O)(=O)NC(=O)c2ccc(N3CCC([C@@H](O)c4ccccc4-c4ccc(Cl)cc4)CC3)cc2)cc1S(=O)(=O)C(F)(F)F [AZD4320] + CS(=O)(=O)CCNCc1ccc(-c2ccc3ncnc(Nc4ccc(OCc5cccc(F)c5)c(Cl)c4)c3c2)o1 [Lapatinib] (first compound max 1 µM, 7x7, partner max 10 µM)")
0.931
>>> number("CC(=O)Nc1cccc(-n2c(=O)n(C3CC3)c(=O)c3c(Nc4ccc(I)cc4F)n(C)c(=O)c(C)c32)c1 [Trametinib] + Cc1nc(-c2cn3c(n2)-c2ccc(-c4cnn(C(C)(C)C(N)=O)c4)cc2OCC3)n(C(C)C)n1 [Taselisib] (first compound max 1 µM, 7x7, partner max 10 µM)")
0.824
>>> number("CN(CCO)CC[C@H](CSc1ccccc1)Nc1ccc(S(=O)(=O)NC(=O)c2ccc(N3CCC([C@@H](O)c4ccccc4-c4ccc(Cl)cc4)CC3)cc2)cc1S(=O)(=O)C(F)(F)F [AZD4320] + Cn1cnc2c(F)c(Nc3ccc(Br)cc3Cl)c(C(=O)NOCCO)cc21 [Selumetinib] (first compound max 1 µM, 7x7, partner max 3 µM)")
0.438
>>> number("CC(=O)c1c(C)c2cnc(Nc3ccc(N4CCNCC4)cn3)nc2n(C2CCCC2)c1=O [Palbociclib] + CC1(C)CCC(CN2CCN(c3ccc(C(=O)NS(=O)(=O)c4ccc(NCC5CCOCC5)c([N+](=O)[O-])c4)c(Oc4cnc5[nH]ccc5c4)c3)CC2)=C(c2ccc(Cl)cc2)C1 [Venetoclax] (first compound max 10 µM, 7x7, partner max 1 µM)")
0.114
>>> number("Cc1cc2ncnn2cc1Nc1ncc2c(n1)n(C1CCOCC1)c(=O)n2C [AZD7648] + O=C(c1cc(Cc2n[nH]c(=O)c3ccccc23)ccc1F)N1CCN(C(=O)C2CC2)CC1 [Olaparib] (first compound max 10 µM, 7x7, partner max 10 µM)")
0.119
>>> number("CCc1c2c(nc3ccc(O)cc13)-c1cc3c(c(=O)n1C2)COC(=O)[C@]3(O)CC [SN-38] + CN(C)CCCOc1ccc(-c2ccc3ncc4c(c3c2)n(C2CCOCC2)c(=O)n4C)cn1 [AZD0156] (first compound max 0.3 µM, 7x7, partner max 1 µM)")
0.395
